Test: MMV: MTT Cytotoxicity Assay Day 7 pi of Assay #7 (compound washed out Day 1 pi), U87-CD4-CXCR4 cells, % cell death @ 5mM compound
Assay type: toxicity, cell-based
Conditions: human, u87-cd4-cxcr4, 5000 µM
parameter: % Cell Death
Number only, please.

{"columns": ["compound", "% Cell Death"],
 "data": [
  ["Cc1cc(=O)oc2c1ccc1oc(C(=O)c3ccccc3)c(C)c12", -3],
  ["COc1ccc(C2c3ccc4ccccc4c3Oc3ncn(CCCn4ccnc4)c(=N)c32)cc1OC (stereo unspecified)", -25],
  ["Fc1ccc2[nH]c3c(NCCCN4CCOCC4)ncnc3c2c1", 7],
  ["COc1ccc2nc(C)cc(Nc3ccccc3O)c2c1", -12],
  ["Cc1cc(C)c2nc(N3CCC(C(=O)NCCCN4CCC(N5CCCCC5)CC4)CC3)sc2c1", -20]
]}

Query: Specify % Cell Death for `CSc1ccccc1C(=O)Nc1nc(-c2ccccn2)cs1` and stop.
Response: 28

Query: Supply % Cell Death value. Item: `Oc1ccc(Br)cc1CN1CCN(Cc2ccc(Cl)cc2)CC1`
Response: 29

Query: Check the records and state % Cell Death for `O=C(Nc1cccc(C2=NCCN2)c1)Nc1cccc(C2=NCCN2)c1`
Response: 15

====

Assay: MMV: MTT Cytotoxicity Assay Day 3 pi, U87-CD4-CXCR4 cells, % cell death @ 5mM compound
Type: toxicity, cell-based
Conditions: human, u87-cd4-cxcr4, 5000 µM
// map % Cell Death onto a label; ranges range A = under 30, range B = from 30 up to 40, range C = 40 and over

Here's what some known entries look like.
{"columns": ["compound", "group.label"],
 "data": [
  ["CCOC(=O)c1cnc2c(C)cccc2c1Nc1ccc(C(C)=O)cc1", "range C"],
  ["O=C(Nc1ccc(-c2nc3cc4ccccc4cc3[nH]2)cc1)c1cccc(Br)c1", "range C"],
  ["CCN(CC)CCNc1ccnc2cc3ccccc3cc12.O=P(O)(O)O", "range A"]
]}

Query: # bin lookup: classify `CN(C)CCCNCc1ccc(-c2ccc(F)c(Cl)c2)o1.Cl` by its % Cell Death
Response: range A

====

Experiment: MMV: MTT Cytotoxicity Assay Day 7 pi of Assay #6 (compound washed out Day 1 pi), U87-CD4-CCR5 cells, % cell death @ 5mM compound
Assay type: toxicity, cell-based
Conditions: human, u87-cd4-ccr5, 5000 µM
parameter: % Cell Death
I'd appreciate a reply containing only the number, no unit.

Solved cases below.
{"columns": ["compound", "% Cell Death"],
 "data": [
  ["CC(C)c1ccc(CNCC(O)c2ccccc2)cc1.Cl (configuration not stated)", -1],
  ["CCOC(=O)C1=C(C)N=c2sc(=Cc3cc(Cl)ccc3O)c(=O)n2C1c1ccc(OC)cc1 (configuration not stated)", 10],
  ["O=C1CC(O)(C(F)(F)C(F)(F)F)Oc2ccccc21 (configuration not stated)", 4],
  ["CCOc1ccccc1NC(=O)CN1CCN(C(=O)c2ccco2)CC1", 13],
  ["Cc1ccc2nc(C)cc(Nc3cccc(C(F)(F)F)c3)c2c1.Cl", 15]
]}

Query: Give the measured % Cell Death for `CCCCNc1nc(NC(C)(C)C)nc(NC(C)(C)C)n1`
Response: 2

Query: Look up and report measured % Cell Death for this entry: COc1cccc(C2(C)Nc3ccccc3-c3nc4ccccc4n32)c1 (configuration not stated)
Response: 37

Query: Give % Cell Death for the following compound: `c1ccc(CNc2nc(Nc3ccccc3)nc3ccccc23)cc1`
Response: -8

Query: Let me know recorded % Cell Death for `CCOC(=O)c1cnc2ccc(CC)cc2c1O` , thanks.
Response: 13

Query: Dear colleague, please send me the reported % Cell Death for `CN(C)c1ccc(C(O)(c2ccc(N(C)C)cc2)c2ccc(N(C)C)cc2)cc1` when you can.
Response: 3

Query: Given `COc1ccc(-c2cn3c(C(=O)Nc4ccccc4Cl)c(-c4ccccc4)c4c3n2CCCC4)cc1` , respond with its % Cell Death.
Response: -4

Query: Retrieve % Cell Death measured for `O=C(Nc1nc(-c2ccccn2)cs1)c1ccccc1Br` and print it.
Response: -13

Query: Please report the measured % Cell Death for COc1cccc(C(=O)NC(c2ccc(C)cc2)c2cc(Cl)c3cccnc3c2O)c1 (configuration not stated)
Response: 23
